measurement protocol: solvent given as SMILES
study conditions: in ClC(Cl)(Cl)Cl

[
  {
    "smiles text": "O=C1O[B-]2(OC1=O)OC(c1ccc3ccccc3c1)=CC(c1ccc3ccccc3c1)=[O+]2",
    "absorption maximum [nm]": 438
  },
  {
    "smiles text": "Cc1ccc(Nc2ccc(Nc3ccc(C)cc3)c3c2C(=O)c2ccccc2C3=O)cc1",
    "absorption maximum [nm]": 642
  },
  {
    "smiles text": "CN(C)c1ccc(/C=C2/N=C(c3ccccc3)OC2=O)cc1",
    "absorption maximum [nm]": 466
  },
  {
    "smiles text": "CC(=O)[B-]1(C(C)=O)OC(c2ccccc2)=CC(c2ccc3ccccc3c2)=[O+]1",
    "absorption maximum [nm]": 400
  },
  {
    "smiles text": "CCCCCCCCCCCCCCCCOc1cc(C#Cc2ccc3ccccc3c2-c2c(C#Cc3cc(OCCCCCCCCCCCCCCCC)c(C#Cc4ccc(C=C(C#N)C#N)cc4)cc3OCCCCCCCCCCCCCCCC)ccc3ccccc23)c(OCCCCCCCCCCCCCCCC)cc1C#Cc1ccc(C=C(C#N)C#N)cc1",
    "absorption maximum [nm]": 447
  },
  {
    "smiles text": "COc1ccc(N(c2ccc(OC)cc2)c2ccc(-c3ccc4c(c3)C(=O)c3ccccc3C4=O)cc2)cc1",
    "absorption maximum [nm]": 483
  },
  {
    "smiles text": "F[B-]1(F)OC(c2ccc3ccccc3c2)=CC(c2ccc3ccccc3c2)=[O+]1",
    "absorption maximum [nm]": 412
  },
  {
    "smiles text": "CN(C)c1ccc(/C=C/C=C2\\CC/C(=C\\C=C\\c3ccc(N(C)C)cc3)C2=O)cc1",
    "absorption maximum [nm]": 465
  },
  {
    "smiles text": "O=C1O[B-]2(OC1=O)OC(c1ccccc1)=CC(c1ccccc1)=[O+]2",
    "absorption maximum [nm]": 384
  },
  {
    "smiles text": "CN(C)c1ccc(/C=C/C=C/c2nc3ccccc3o2)cc1",
    "absorption maximum [nm]": 406
  },
  {
    "smiles text": "O=C1c2ccccc2C(=O)c2cc(-c3ccc(N(c4ccccc4)c4ccccc4)cc3)ccc21",
    "absorption maximum [nm]": 457
  },
  {
    "smiles text": "CCCCCCCC(=O)Oc1ccc2c3cccc4c(OC(=O)CCCCCCC)ccc(c5cccc1c52)c43",
    "absorption maximum [nm]": 448
  },
  {
    "smiles text": "Cc1cc(C#Cc2ccccc2)c2ccc3c(C#Cc4ccccc4)cc(C#Cc4ccccc4)c4ccc1c2c43",
    "absorption maximum [nm]": 445
  },
  {
    "smiles text": "CN(C)c1ccc(/C=C/C=C2\\CCCC2=O)cc1",
    "absorption maximum [nm]": 407
  },
  {
    "smiles text": "CN(C)c1ccc(/C=C2\\CCCC2=O)cc1",
    "absorption maximum [nm]": 370
  }
]

* * *

A collection of molecules and their measured absorption maximum
measurement protocol: solvent given as SMILES
study conditions: in C1CCOC1
experimental readout: absorption maximum (nm)

[
  {
    "molecule": "CC1(C)CC(/C=C/c2ccc(-n3c4ccccc4c4ccccc43)cc2)=CC(=C(C#N)C#N)C1",
    "observed result": 408
  },
  {
    "molecule": "CCOc1cc2c(cc1/C=C/C(=C(C#N)C#N)c1ccccc1)c1ccccc1n2CC",
    "observed result": 462
  },
  {
    "molecule": "CN(C)c1ccc(C#Cc2ccccc2)cc1",
    "observed result": 328.8
  },
  {
    "molecule": "CC(C)(C)[Si](C)(C)C#CC1=CC2=c3cc(C#C[Si](C)(C)C(C)(C)C)c4nc(C(F)(F)C(F)(F)C(F)(F)F)nc5c(C#C[Si](C)(C)C(C)(C)C)cc(c3c54)C3=CC(C#C[Si](C)(C)C(C)(C)C)=C4N=C(C(F)(F)C(F)(F)C(F)(F)F)N=C1C4C32 (centres undefined)",
    "observed result": 513
  }
]

Where do the numbers come from? From the Deep4Chem optical property database.
